test system: Hepatitis C virus; test: Antiviral activity against HCV genotype 1b Con1 infected in human HuH7.5 cells assessed as inhibition of viral replication after 4 days by luciferase reporter gene assay; type: functional, organism-based, Hepacivirus hominis; conditions: isolate Con1, Huh7.5, 96 h
pEC50: −log10 of the molar value.
Listing: pEC50 of selected molecules

TEST_SMILES: COc1cnc(O[C@@H]2C[C@@H](C(=O)N[C@]3(C(=O)NS(=O)(=O)C4CC4)C[C@H]3C3CC3)N(C(=O)[C@@H](NC(=O)OC(C)(C)C)C(C)(C)C)C2)c2cc(Cl)ccc12
TARGET: Hepatitis C virus
CENSORING_SIGN: =
pEC50: 7.74
//
TEST_SMILES: COc1cnc(O[C@@H]2C[C@@H](C(=O)N[C@]3(C(=O)NS(=O)(=O)C4CC4)C[C@H]3C)N(C(=O)[C@@H](NC(=O)OC(C)(C)C)C(C)(C)C)C2)c2cc(Cl)ccc12
TARGET: Hepatitis C virus
CENSORING_SIGN: =
pEC50: 7.19
//
TEST_SMILES: COc1cnc(O[C@@H]2C[C@@H](C(=O)N[C@@H](CC(F)F)C(=O)NS(=O)(=O)C3CC3)N(C(=O)[C@@H](NC(=O)OC(C)(C)C)C(C)(C)C)C2)c2cc(Cl)ccc12
TARGET: Hepatitis C virus
CENSORING_SIGN: =
pEC50: 6.29
//
TEST_SMILES: COc1cnc(O[C@@H]2C[C@@H](C(=O)N[C@H](CC(F)F)C(=O)NS(=O)(=O)C3CC3)N(C(=O)[C@@H](NC(=O)OC(C)(C)C)C(C)(C)C)C2)c2cc(Cl)ccc12
TARGET: Hepatitis C virus
CENSORING_SIGN: <
pEC50: 6.00
//
TEST_SMILES: COc1cnc(O[C@@H]2C[C@@H](C(=O)NC3(C(=O)NS(=O)(=O)C4CC4)CC3)N(C(=O)[C@@H](NC(=O)OC(C)(C)C)C(C)(C)C)C2)c2cc(Cl)ccc12
TARGET: Hepatitis C virus
CENSORING_SIGN: =
pEC50: 6.47

* * *

assay: Oral bioavailability in Sprague-Dawley rat at 15 mg/kg, administered via gavage by LC/MS/MS analysis; type: ADME, organism-based; conditions: in vivo

TEST_SMILES: COc1cnc(O[C@@H]2C[C@@H](C(=O)N[C@]3(C(=O)NS(=O)(=O)C4CC4)C[C@H]3C(F)F)N(C(=O)[C@@H](NC(=O)OC(C)(C)C)C(C)(C)C)C2)c2cc(Cl)ccc12
bioavailability [%]: 0.9

* * *

assay: Clearance in Sprague-Dawley rat at 15 mg/kg, po administered via gavage or 5 mg/kg, iv administered as 10 mins infusion by LC/MS/MS analysis; assay type: ADME, organism-based; conditions: in vivo
Listing: clearance of selected compounds

TEST_SMILES: COc1cnc(O[C@@H]2C[C@@H](C(=O)N[C@]3(C(=O)NS(=O)(=O)C4CC4)C[C@H]3C(F)F)N(C(=O)[C@@H](NC(=O)OC(C)(C)C)C(C)(C)C)C2)c2cc(Cl)ccc12
QUANTITY_UNIT: mL/min/kg
clearance: 58

TEST_SMILES: COc1cnc(O[C@@H]2C[C@@H](C(=O)N[C@]3(C(=O)NS(=O)(=O)C4CC4)C[C@H]3C3CC3)N(C(=O)[C@@H](NC(=O)OC(C)(C)C)C(C)(C)C)C2)c2cc(Cl)ccc12
QUANTITY_UNIT: mL/min/kg
clearance: 5.2

* * *

experiment: Elimination half life in Sprague-Dawley rat at 15 mg/kg, po administered via gavage or 5 mg/kg, iv administered as 10 mins infusion by LC/MS/MS analysis; assay type: ADME, organism-based; settings: in vivo, read-out: beta t1/2 (converted)
ENDPOINT_LABEL: half-life (h)

TEST_SMILES: COc1cnc(O[C@@H]2C[C@@H](C(=O)N[C@]3(C(=O)NS(=O)(=O)C4CC4)C[C@H]3C(F)F)N(C(=O)[C@@H](NC(=O)OC(C)(C)C)C(C)(C)C)C2)c2cc(Cl)ccc12
QUANTITY_UNIT: h
EXPERIMENTAL_VALUE: 2.6

* * *

experiment: Half life in human liver microsomes by LC/MS/MS analysis; assay type: ADME, microsome
ENDPOINT_LABEL: half-life (min)

TEST_SMILES: COc1cnc(O[C@@H]2C[C@@H](C(=O)N[C@]3(C(=O)NS(=O)(=O)C4CC4)C[C@H]3C(F)(F)F)N(C(=O)[C@@H](NC(=O)OC(C)(C)C)C(C)(C)C)C2)c2cc(Cl)ccc12
QUANTITY_UNIT: min
EXPERIMENTAL_VALUE: 47
//
TEST_SMILES: C=CC[C@](C)(NC(=O)[C@@H]1C[C@@H](Oc2ncc(OC)c3ccc(Cl)cc23)CN1C(=O)[C@@H](NC(=O)OC(C)(C)C)C(C)(C)C)C(=O)NS(=O)(=O)C1CC1
QUANTITY_UNIT: min
EXPERIMENTAL_VALUE: 53.5
//
TEST_SMILES: COc1cnc(O[C@@H]2C[C@@H](C(=O)N[C@]3(C(=O)NS(=O)(=O)C4CC4)C[C@H]3C)N(C(=O)[C@@H](NC(=O)OC(C)(C)C)C(C)(C)C)C2)c2cc(Cl)ccc12
QUANTITY_UNIT: min
EXPERIMENTAL_VALUE: 96

* * *

assay: Half life in human liver microsomes by LC/MS/MS analysis; type: ADME, microsome
Listing: half-life of selected molecules

TEST_SMILES: COc1cnc(O[C@@H]2C[C@@H](C(=O)N[C@]3(C(=O)NS(=O)(=O)C4CC4)C[C@H]3CC(F)F)N(C(=O)[C@@H](NC(=O)OC(C)(C)C)C(C)(C)C)C2)c2cc(Cl)ccc12
QUANTITY_UNIT: h
half-life: 3.33
--
TEST_SMILES: COc1cnc(O[C@@H]2C[C@@H](C(=O)NC3(C(=O)NS(=O)(=O)C4CC4)CC3)N(C(=O)[C@@H](NC(=O)OC(C)(C)C)C(C)(C)C)C2)c2cc(Cl)ccc12
QUANTITY_UNIT: h
half-life: 2
--
TEST_SMILES: COc1cnc(O[C@@H]2C[C@@H](C(=O)N[C@]3(C(=O)NS(=O)(=O)C4CC4)C[C@H]3C(F)F)N(C(=O)[C@@H](NC(=O)OC(C)(C)C)C(C)(C)C)C2)c2cc(Cl)ccc12
QUANTITY_UNIT: h
half-life: 2

* * *

target: Hepatitis C virus serine protease, NS3/NS4A (Hepatitis C virus, UniProt A3EZI9+D2K2A8)
Sequence (D2K2A8 whole entry): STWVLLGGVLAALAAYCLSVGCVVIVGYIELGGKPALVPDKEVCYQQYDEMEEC
Sequence (A3EZI9 whole entry): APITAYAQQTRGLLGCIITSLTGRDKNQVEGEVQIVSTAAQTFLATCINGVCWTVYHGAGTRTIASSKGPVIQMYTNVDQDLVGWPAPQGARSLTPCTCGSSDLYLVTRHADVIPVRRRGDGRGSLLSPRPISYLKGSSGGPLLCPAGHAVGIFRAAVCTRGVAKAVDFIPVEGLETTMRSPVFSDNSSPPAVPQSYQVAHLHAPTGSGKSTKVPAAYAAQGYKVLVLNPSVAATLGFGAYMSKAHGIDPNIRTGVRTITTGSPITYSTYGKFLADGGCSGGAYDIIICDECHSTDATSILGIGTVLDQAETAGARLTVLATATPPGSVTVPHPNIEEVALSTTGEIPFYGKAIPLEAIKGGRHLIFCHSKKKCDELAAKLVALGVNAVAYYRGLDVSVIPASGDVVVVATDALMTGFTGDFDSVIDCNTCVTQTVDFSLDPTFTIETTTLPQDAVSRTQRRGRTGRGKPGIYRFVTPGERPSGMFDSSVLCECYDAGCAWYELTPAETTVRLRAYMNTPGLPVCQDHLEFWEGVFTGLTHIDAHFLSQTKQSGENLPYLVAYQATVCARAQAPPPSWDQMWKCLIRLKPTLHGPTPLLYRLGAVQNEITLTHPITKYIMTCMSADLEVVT
pIC50: −log10 of the molar value.
Tag: 1 if measured pIC50 is not below 7, -1 if it is.

MOLECULE: CC[C@H](NC(=O)[C@@H]1C[C@@H](Oc2ncc(OC)c3ccc(Cl)cc23)CN1C(=O)[C@@H](NC(=O)OC(C)(C)C)C(C)(C)C)C(=O)NS(=O)(=O)C1CC1
CLASS: -1

MOLECULE: C=CC[C@](C)(NC(=O)[C@@H]1C[C@@H](Oc2ncc(OC)c3ccc(Cl)cc23)CN1C(=O)[C@@H](NC(=O)OC(C)(C)C)C(C)(C)C)C(=O)NS(=O)(=O)C1CC1
CLASS: -1

MOLECULE: COc1cnc(O[C@@H]2C[C@@H](C(=O)NC(C)(C)C(=O)NS(=O)(=O)C3CC3)N(C(=O)[C@@H](NC(=O)OC(C)(C)C)C(C)(C)C)C2)c2cc(Cl)ccc12
CLASS: -1

MOLECULE: COc1cnc(O[C@@H]2C[C@@H](C(=O)N[C@]3(C(=O)NS(=O)(=O)C4CC4)C[C@H]3CC(F)F)N(C(=O)[C@@H](NC(=O)OC(C)(C)C)C(C)(C)C)C2)c2cc(Cl)ccc12
CLASS: 1

MOLECULE: CC[C@@H](NC(=O)[C@@H]1C[C@@H](Oc2ncc(OC)c3ccc(Cl)cc23)CN1C(=O)[C@@H](NC(=O)OC(C)(C)C)C(C)(C)C)C(=O)NS(=O)(=O)C1CC1
CLASS: -1

MOLECULE: COc1cnc(O[C@@H]2C[C@@H](C(=O)N[C@]3(C(=O)NS(=O)(=O)C4CC4)C[C@H]3C3CC3)N(C(=O)[C@@H](NC(=O)OC(C)(C)C)C(C)(C)C)C2)c2cc(Cl)ccc12
CLASS: 1

MOLECULE: CC[C@@H]1C[C@]1(NC(=O)[C@@H]1C[C@@H](Oc2ncc(OC)c3ccc(Cl)cc23)CN1C(=O)[C@@H](NC(=O)OC(C)(C)C)C(C)(C)C)C(=O)NS(=O)(=O)C1CC1
CLASS: 1

MOLECULE: COc1cnc(O[C@@H]2C[C@@H](C(=O)N[C@@H](CC(F)F)C(=O)NS(=O)(=O)C3CC3)N(C(=O)[C@@H](NC(=O)OC(C)(C)C)C(C)(C)C)C2)c2cc(Cl)ccc12
CLASS: -1

MOLECULE: COc1cnc(O[C@@H]2C[C@@H](C(=O)NC3(C(=O)NS(=O)(=O)C4CC4)CCC3)N(C(=O)[C@@H](NC(=O)OC(C)(C)C)C(C)(C)C)C2)c2cc(Cl)ccc12
CLASS: -1

MOLECULE: COc1cnc(O[C@@H]2C[C@@H](C(=O)N[C@H](CC(F)F)C(=O)NS(=O)(=O)C3CC3)N(C(=O)[C@@H](NC(=O)OC(C)(C)C)C(C)(C)C)C2)c2cc(Cl)ccc12
CLASS: -1

MOLECULE: COc1ccc2c(O[C@@H]3C[C@@H](C(=O)NC(CC(F)F)C(=O)NS(=O)(=O)C4CC4)N(C(=O)[C@@H](NC(=O)OC(C)(C)C)C(C)(C)C)C3)cc(-c3ccccc3)nc2c1 (some centres undefined)
CLASS: -1

MOLECULE: COc1cnc(O[C@@H]2C[C@@H](C(=O)N[C@]3(C(=O)NS(=O)(=O)C4CC4)C[C@H]3C)N(C(=O)[C@@H](NC(=O)OC(C)(C)C)C(C)(C)C)C2)c2cc(Cl)ccc12
CLASS: 1

MOLECULE: COc1cnc(O[C@@H]2C[C@@H](C(=O)NC3(C(=O)NS(=O)(=O)C4CC4)CC3)N(C(=O)[C@@H](NC(=O)OC(C)(C)C)C(C)(C)C)C2)c2cc(Cl)ccc12
CLASS: 1

MOLECULE: COc1cnc(O[C@@H]2C[C@@H](C(=O)N[C@]3(C(=O)NS(=O)(=O)C4CC4)C[C@H]3C(F)(F)F)N(C(=O)[C@@H](NC(=O)OC(C)(C)C)C(C)(C)C)C2)c2cc(Cl)ccc12
CLASS: 1
